Would you mind telling me the reported protein stability index of each entry?
B1: CDC34 (parent)
chain: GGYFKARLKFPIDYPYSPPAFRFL

variants of: B1; assay: protein stability index of a GFP-peptide fusion (GPS, HEK-293T) (PSI 1-6); higher = more stable; conditions: c terminus: a fixed tail appended;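 also: lentivirally expressed fusions sorted by FACS into six bins by GFP to DsRed ratio, PSI derived from sequencing read proportions per bin multiplied by bin number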
Answers are plain numbers.

Here is how some variants turned out for protein stability index.
Macromolecule Sequence	protein stability index
GGYFKARLKFPIDYPYSPPAFDFL [R22D]	3.74
GGYFKARLKFPCDYPYSPPAFRFL [I12C]	2.64
QGYFKARLKFPIDYPYSPPAFRFL [G1Q]	2.39
GGYFKARLKFPIDYPESPPAFRFL [Y16E]	2.23
GTYFKARLKFPIDYPYSPPAFRFL [G2T]	3.26

Below are some variants; for each one, tell me its protein stability index.
1. GGYFKARLKFPSDYPYSPPAFRFL [I12S]
2. GGYFKAKLKFPIDYPYSPPAFRFL [R7K]
3. GGYFKARLKFPIDYPKSPPAFRFL [Y16K]
4. GNYFKARLKFPIDYPYSPPAFRFL [G2N]
5. GGYFKARLKFPIDYPYSQPAFRFL [P18Q]
6. GGYFKARLKFPIDYPYWPPAFRFL [S17W]
7. GGYFKARLKFPIDYPYSPPAVRFL [F21V]

1: 3.06; 2: 3.83; 3: 3.31; 4: 2.68; 5: 3.79; 6: 2.82; 7: 3.33

All figures here come from the supplement of paper PMC10567573.
